TARGET SYSTEM: human serum albumin (HSA) (Homo sapiens)
Sequence (P02768 25-609): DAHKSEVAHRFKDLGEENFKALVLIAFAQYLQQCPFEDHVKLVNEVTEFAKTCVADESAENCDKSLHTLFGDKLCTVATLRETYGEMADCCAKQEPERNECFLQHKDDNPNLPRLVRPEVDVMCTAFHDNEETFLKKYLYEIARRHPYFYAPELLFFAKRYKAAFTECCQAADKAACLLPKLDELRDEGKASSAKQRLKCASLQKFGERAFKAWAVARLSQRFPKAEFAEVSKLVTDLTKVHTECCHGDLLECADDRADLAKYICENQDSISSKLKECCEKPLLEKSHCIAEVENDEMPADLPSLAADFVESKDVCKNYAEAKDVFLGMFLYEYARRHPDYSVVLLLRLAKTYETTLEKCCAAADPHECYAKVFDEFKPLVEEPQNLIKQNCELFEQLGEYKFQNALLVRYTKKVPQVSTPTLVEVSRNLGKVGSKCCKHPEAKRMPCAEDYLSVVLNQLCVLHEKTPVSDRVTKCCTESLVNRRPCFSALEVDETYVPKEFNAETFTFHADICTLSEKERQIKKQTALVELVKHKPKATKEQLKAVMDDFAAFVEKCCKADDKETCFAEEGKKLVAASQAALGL
MEASUREMENT DESCRIPTION: Evaluation of binding to albumin (HSA solution, PBS control)
CONDITION CONTEXT: left to stand in HSA solution (45 mg/mL)
MEASUREMENT TYPE: radioactivity in the eluate (in words)

{"columns": ["COMPOUND", "MEASUREMENT TYPE", "RESULT"],
 "data": [
  ["O=C([O-])CN(Cc1cccc(C(=O)[O-])n1)C[C@H](Cc1ccc(NC(=O)CCCCCNC(=O)CCC(=O)NCCCC[C@H](NC(=O)N[C@@H](CCC(=O)O)C(=O)O)C(=O)O)cc1)N(CC(=O)[O-])Cc1cccc(C(=O)[O-])n1.[111In+3] [[^111In]In-Octapa-1, reference compound]", "radioactivity in the eluate (in words)", "low"],
  ["O=C([O-])CN(Cc1cccc(C(=O)[O-])n1)C[C@H](Cc1ccc(NC(=O)[C@H](CCCCNC(=O)CCC(=O)NCCCC[C@H](NC(=O)N[C@@H](CCC(=O)O)C(=O)O)C(=O)O)NC(=O)COCCOCCOCC(=O)N[C@@H](CCCCNC(=O)CCCc2ccc(I)cc2)C(=O)O)cc1)N(CC(=O)[O-])Cc1cccc(C(=O)[O-])n1.[111In+3] [[^111In]In-Octapa-3]", "radioactivity in the eluate (in words)", "significantly higher"],
  ["O=C([O-])CN1CCN(C(CCC(=O)NCCCC[C@H](NC(=O)N[C@@H](CCC(=O)O)C(=O)O)C(=O)O)C(=O)[O-])CCN(CC(=O)[O-])CCN(C(CCC(=O)N[C@@H](CCCCNC(=O)CCCc2ccc(I)cc2)C(=O)O)C(=O)[O-])CC1.[111In+3] (stereo partly shown) [[^111In]In-PSMA-DA1]", "radioactivity in the eluate (in words)", "significantly higher"],
  ["O=C([O-])CN(CCN(CCc1ccc(NC(=O)[C@H](CCCCNC(=O)CCC(=O)NCCCC[C@H](NC(=O)N[C@@H](CCC(=O)O)C(=O)O)C(=O)O)NC(=O)CCCc2ccc(I)cc2)cc1)CCN(CC(=O)[O-])Cc1cccc(C(=O)[O-])n1)Cc1cccc(C(=O)[O-])n1.[111In+3] [[^111In]In-Neunpa-2]", "radioactivity in the eluate (in words)", "significantly higher"]
]}

* * *

Tested on: LNCaP tumor-transplanted mouse
MEASUREMENT DESCRIPTION: Internal radioactivity distribution using LNCaP tumor-transplanted mouse
Type: in vivo
CONDITION CONTEXT: 96 h after administration
# key: entry, value: Kidney
// note: answer is a bare numeric in % ID/g

{"columns": ["COMPOUND", "UNIT SPEC", "Kidney"],
 "data": [
  ["O=C([O-])CN(Cc1cccc(C(=O)[O-])n1)C[C@H](Cc1ccc(NC(=O)CCCCCNC(=O)CCC(=O)NCCCC[C@H](NC(=O)N[C@@H](CCC(=O)O)C(=O)O)C(=O)O)cc1)N(CC(=O)[O-])Cc1cccc(C(=O)[O-])n1.[111In+3] [[^111In]In-Octapa-1, reference compound]", "% ID/g", 7.24]
]}

Below: the item to evaluate.
Enquiry: Endpoint output: Kidney of O=C([O-])CN(Cc1cccc(C(=O)[O-])n1)C[C@H](Cc1ccc(NC(=O)[C@H](CCCCNC(=O)CCC(=O)NCCCC[C@H](NC(=O)N[C@@H](CCC(=O)O)C(=O)O)C(=O)O)NC(=O)CCCc2ccc(I)cc2)cc1)N(CC(=O)[O-])Cc1cccc(C(=O)[O-])n1.[111In+3] [[^111In]In-Octapa-2] . Value?
Return: 3.27
